Signal to noise ratio by entry:
- assayed_system: Anti-hC5 Antibody
- Sequence (constant, as listed by the source limits assumed): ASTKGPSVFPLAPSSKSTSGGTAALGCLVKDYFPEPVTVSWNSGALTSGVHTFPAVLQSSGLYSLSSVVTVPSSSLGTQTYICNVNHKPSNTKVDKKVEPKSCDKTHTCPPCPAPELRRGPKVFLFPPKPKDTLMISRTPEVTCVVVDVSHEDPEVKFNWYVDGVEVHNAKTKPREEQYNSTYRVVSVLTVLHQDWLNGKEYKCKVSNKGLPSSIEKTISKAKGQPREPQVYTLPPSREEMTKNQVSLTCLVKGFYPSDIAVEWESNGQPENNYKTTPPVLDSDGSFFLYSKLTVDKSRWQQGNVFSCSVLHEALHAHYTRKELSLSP
- assay_method_text: sandwich ELISA: SKA antibody coated, Anti-hC5 Antibody in pooled human serum; OD spiked / OD blank
Please reply with the value in numeric form only.

// worked examples, Signal to noise ratio included
binder="SKA0001 (antibody, V domains shown) VH: QSVEESGGRLVTPGTPLTLTCTVSGFSLSYYAMNWVRQAPGKGLEWIGIIGISGGTYYASWAKGRFTISKSSSTTVDLKMTSPTTEDTATYFCARGGSAWGDLWGQGTLVTVSS VL: DIVMTQTPSSVSAAVGGTVTINCQASQSISRLLAWYQQKPGQPPKVLMHDASDLASGVPSRFKGSGSGTEYTLTISDLECADAATYYCQSYYWGSSGDIGYPFGGGTEVVVKG" measure="Signal to noise ratio" recorded_measurement=2.5
binder="SKA0027 (antibody, V domains shown) VH: QEQLVESGGGLVQPEGSLTLTCTASGFSFSSSDYMCWVRQAPGKGLEWIGCIYTGSGSTYYASWAKGRFTISKTSSTTVTLQMTSLTAADTATFFCARRGDSYSNYSFKLWGPGTLVTVSS VL: AFELTQTPASVEAAVGGTVTIKCQASQNIYSNLAWYQQKPGQPPKLLIYTASSLASGVSSRFKGSGSGTEFTLTISDLECDDAATYYCQCTYINNGYGNTFGGGTEVVVKG" measure="Signal to noise ratio" recorded_measurement=3.4
binder="SKA0016 (antibody, V domains shown) VH: QEQLVESGGGLVQPEGSLTLTCTASGFSFSSSDYMCWVRQAPGKGLEWIACIYIGSNGDTFYASWAKGRFTISKTSSTTVTLQMTSLTAADTATYFCARDSRRADDYGTRLDLWGQGTLVTVSS VL: DIVMTQTPSSVSAAVGGTVTIKCQASQNIYRNLAWYQQKPGQPPKLLIYQASKLESGVPSRFKGSGSGTEFTLTISDLDCDDAASYYCQSISYISSGDTFFWAFGGGTEVVVKG" measure="Signal to noise ratio" recorded_measurement=2.5

Given SKA0127 (antibody, V domains shown) VH: QSVEESGGRLVTPGTPLTLTCTVSGIDLSTYAMTWVRQAPGKGLEYIGYINGGGSAYYASWVNGRFTISKTSTTADLKITSPTTEDTATYFCARGPVGSYHRIWGPGTLVTVSS VL: ALVMTQTPSSVSEPVGGTVTINCRASEDIESYLAWYQQKPGQPPKLLIYATSNLETGVPSRFKGSGSGTDYTLTISGVQCADAATYYCQGYYELSSIDNNAFGGGTEVVVKG , state its recorded Signal to noise ratio.
2.8

# query: Signal to noise ratio of entry SKA0052 (antibody, V domains shown) VH: QSLEESGGDLVKSGASLTLTCTASGFSFSSSYYMCWVRQAPGKGLEWIACIYTGSNGDTYYASWANGRFTISKASSTTVTLQMTSLTAADTATYFCARYTYDDDGDYTSFNLWGPGTLVTVSS VL: ALVMTQTPSSVSADVGGTVTINCQASQNIYRNLAWYQQKPGQRPKLLIYGASNLEPGVPSRFKGSGSGTEFTLTISDLECDDAATYYCQSVGYSGSVDTFFYAFGGGTEVVVKG
3.7
